src = patent US20240368302A1

- target: T1, human TROP2-Fc protein antigen (human, UniProt P09758 27-274)
- T1 construct: extracellular domain; also called CRD + TY-1 + CPD; not shown: IgG Fc of the pFUSE-IgG plasmid
- T1 sequence (looked up): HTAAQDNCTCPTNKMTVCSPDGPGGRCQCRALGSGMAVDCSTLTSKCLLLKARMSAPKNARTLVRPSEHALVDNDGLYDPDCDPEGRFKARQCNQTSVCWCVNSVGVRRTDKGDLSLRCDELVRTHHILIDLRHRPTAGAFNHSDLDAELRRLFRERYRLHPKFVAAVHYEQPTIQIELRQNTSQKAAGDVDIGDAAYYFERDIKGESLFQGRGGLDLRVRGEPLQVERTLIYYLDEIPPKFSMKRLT
- runDescription: ELISA, coated Fc protein of human TROP2 CRD + TY-1 + CPD, Kd calculated from absorbance
Assign Kd to each entry below.
Output spec: scalar in nM, unitless text.

What value of measured Kd is listed for MY1530-4-22 (VHH, Expressed in E. coli WK6 from vector pMECS, purified on a nickel column; also called MY1530-4-22 VHH; anti-TROP2 single domain antibody) VHH: QVQLQESGGGSVQAGGSLKLSCVVSGYTVSSVCMAWFRQAPGMERELVAGFYHSGGTYYGDSVKGRFTASQDNAKNTLYLQMNSLKPEDTATYYCARARYPSSACGTSPSNYNIWGQGTQVTVSS ?
1.29

What value of measured Kd is listed for MY1530-5-17 (VHH, Expressed in E. coli WK6 from vector pMECS, purified on a nickel column; also called MY1530-5-17 VHH; anti-TROP2 single domain antibody) VHH: QVQLQESGGGSVQPGGSLRLSCVVSGYTVSSVCMAWFRQAPGMERELVAGFYHSGGTYYGDSVKGRFTASQDNAKNTLYLQMNSLKPEDTATYYCARARYPSSACGTSPSNYNIWGQGTQVTVSS ?
1.39

What value of measured Kd is listed for MY1530-1-26 (VHH, Expressed in E. coli WK6 from vector pMECS, purified on a nickel column; also called MY1530-1-26 VHH; anti-TROP2 single domain antibody) VHH: QVQLQESGGGSVQAGGSLRLSCVVSGYTTTRYSMAWFRQAPGKEREGVAGIDTDVLTTYKPSVEGRFTISRDSAKRTLYLQMNSLKPEDTAMYYCATGTGNFLALDPVWYNTWGQGTQVTVSS ?
4.86

What value of measured Kd is listed for MY1530-1-20 (VHH, Expressed in E. coli WK6 from vector pMECS, purified on a nickel column; also called MY1530-1-20 VHH; anti-TROP2 single domain antibody) VHH: QVQLQESGGGSVLAGGSLRLSCTVSGSFVSSRSMAWFRQTPGKEREGVAAISQYGDPKYAGSVKGRFTMSRDNAKNTLLLQMNSLKPEDTAIYYCAAGEAWELATLSRSDYIYWGQGTQVTVSS ?
1.13
